Molecular target: T1, 4H_BCR
T1 chain: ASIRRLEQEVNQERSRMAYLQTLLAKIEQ
Experiment: two-hybrid library CCmax;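 also: natural log of median RNA to DNA barcode read ratio; higher means stronger binding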
measurement-kind: interaction score

# binder, interaction score
rows = [
    ("KRAKQLRKRLQALEWQLAQIRKELQAAEK [4H_APH3]", -1.42),
    ("DKNAALKAEIAALEAEIAALEAENAALEG [4H3587-AA]", -2.15),
    ("KRLKQIEKRLQAKEWEKAQLRKELQALRK [4H_APH4]", -1.95),
    ("ASIRRLEQEVNQERSRMAYLQTLLAKIEQ [4H_BCR]", -1.84),
]

[1] KRLKQLRKRKQAKRWEEAQIEKELQAIEK [4H_APH2]
[2] DEIAALEAENAALEAEIAALEAKIAALKG [4H134-AA]
Pick one, 1 or 2 : lowest reported interaction score. Lab log: write the label of the selected item as the result. 1
